testTarget: T1, human OT7T175 (metastin receptor) (human, UniProt Q969F8 1-398)
T1 construct: expressed on CHO cells; also called hOT7T175; hOT7T175-expressed CHO cells
T1 sequence (Q969F8 whole entry L364H): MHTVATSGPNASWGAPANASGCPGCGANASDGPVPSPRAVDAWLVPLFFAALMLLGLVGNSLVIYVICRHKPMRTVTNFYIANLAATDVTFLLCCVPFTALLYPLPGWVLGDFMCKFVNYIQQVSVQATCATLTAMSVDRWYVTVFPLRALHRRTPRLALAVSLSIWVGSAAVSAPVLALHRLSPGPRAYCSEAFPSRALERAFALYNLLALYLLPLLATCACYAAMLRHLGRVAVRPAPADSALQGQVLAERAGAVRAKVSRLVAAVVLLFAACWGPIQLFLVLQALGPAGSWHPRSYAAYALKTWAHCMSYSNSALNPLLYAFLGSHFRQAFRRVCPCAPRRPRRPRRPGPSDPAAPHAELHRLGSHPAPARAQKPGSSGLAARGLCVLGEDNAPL
experimentalProtocol: competition with Cy-5 metastin (40-54) on hOT7T175-CHO cells, FMAT
Non-standard residues stand in square brackets, D forms with d. No end group written: not given here. *: point of attachment. Arg(Me) = CNC(=N)NCCC[C@H](N)C(=O)O; Fmoc = O=C(OCC1c2ccccc2-c2ccccc21)*; d3Pal = N[C@H](Cc1cccnc1)C(=O)O; Cha = N[C@@H](CC1CCCCC1)C(=O)O; azaGly = NNC(=O)O
observationType: pIC50
# pIC50 is unitless: minus log10 of the molar concentration; print number only

// pIC50 value for YNWNSXGLRF (Nal(1)6; C-terminal amide, also called Compound No. 151) [[Nal(1)6]MS10] : 6.52

binder [dA]NWNSF[azaGly]L[Arg(Me)]F-NH2 (N-terminus assumed; SMILES CNC(=N)NCCC[C@H](NC(=O)[C@H](CC(C)C)NC(=O)NNC(=O)[C@H](Cc1ccccc1)NC(=O)[C@H](CO)NC(=O)[C@H](CC(N)=O)NC(=O)[C@H](Cc1c[nH]c2ccccc12)NC(=O)[C@H](CC(N)=O)NC(=O)[C@@H](C)N)C(=O)N[C@@H](Cc1ccccc1)C(N)=O, also called Compound No. 259) [[D-Ala1,AzaGly7,Arg(Me)9]MS10] , pIC50 observed: 6.60

Query Fmoc-WNSFGL[Arg(Me)]F-NH2 (also called Compound No. 145) [des(1-2)-Fmoc-[Arg(Me)9]MS10] yields pIC50 of 6.92

Entry under test: [dY]TNSFGL[Arg(Me)]F-NH2 (N-terminus assumed; SMILES CNC(=N)NCCC[C@H](NC(=O)[C@H](CC(C)C)NC(=O)CNC(=O)[C@H](Cc1ccccc1)NC(=O)[C@H](CO)NC(=O)[C@H](CC(N)=O)NC(=O)[C@@H](NC(=O)[C@H](N)Cc1ccc(O)cc1)[C@@H](C)O)C(=O)N[C@@H](Cc1ccccc1)C(N)=O, also called Compound No. 227) [des(1)-[D-Tyr2,Thr3,Arg(Me)9]MS10] . Its pIC50 was 7.32

# pIC50 (binder: [d3Pal][dN][Cha]NSF[azaGly]L[Arg(Me)]F-NH2 (N-terminus assumed; SMILES CNC(=N)NCCC[C@H](NC(=O)[C@H](CC(C)C)NC(=O)NNC(=O)[C@H](Cc1ccccc1)NC(=O)[C@H](CO)NC(=O)[C@H](CC(N)=O)NC(=O)[C@H](CC1CCCCC1)NC(=O)[C@@H](CC(N)=O)NC(=O)[C@H](N)Cc1cccnc1)C(=O)N[C@@H](Cc1ccccc1)C(N)=O, also called Compound No. 290) [[D-Pya(3)1,D-Asn2,Cha3,AzaGly7,Arg(Me)9]MS10] ) is 8.85

Measured pIC50, YNWNLFGLRF-NH2 (also called Compound No. 24) [[Leu5]MS10] : 9.08

What the record says about [dY]NWNSFGL[Arg(Me)]F-NH2 (also: bond 7-8 CONH replaced by CH2NH, also called Compound No. 307) [[7Ψ8,CH2NH,D-Tyr1,Arg(Me)9]MS10] : pIC50 is 7.19

Lookup result for [dY]NINSFGL[Arg(Me)]F-NH2 (N-terminus assumed; SMILES CC[C@H](C)[C@H](NC(=O)[C@H](CC(N)=O)NC(=O)[C@H](N)Cc1ccc(O)cc1)C(=O)N[C@@H](CC(N)=O)C(=O)N[C@@H](CO)C(=O)N[C@@H](Cc1ccccc1)C(=O)NCC(=O)N[C@@H](CC(C)C)C(=O)N[C@@H](CCCNC(=N)NC)C(=O)N[C@@H](Cc1ccccc1)C(N)=O, also called Compound No. 206) [[D-Tyr1,Ile3,Arg(Me)9]MS10] ; measured pIC50: 7.07
